# RECORDED CONDITIONS: acidic group
Would you mind labelling by pKa? At or over 10 is yes, under is no.

Please review the following examples before continuing.
O=C(O)c1ccccc1I :: no
CC(=O)c1ccc(Cl)cc1 :: yes
CC(Br)C(=O)O (stereo not given) :: no

Prompt: Could you verify whether the entry `O=C(O)c1cc[n+](O)cc1` shows pKa of no less than 10?
Completion: no

Prompt: Could you verify whether the entry `CC(=O)/C(=N\O)C(C)C` shows pKa of no less than 10?
Completion: no

Prompt: Could you verify whether the entry `CSc1ccc(O)cc1` shows pKa of no less than 10?
Completion: no
